System Tested: Human immunodeficiency virus type 1 reverse transcriptase (Human immunodeficiency virus 1, UniProt Q72547)
Protocol: In vitro inhibitory activity against human immunodeficiency virus type 1 (HIV-1) reverse transcriptase (RT)
pIC50: −log10 of the molar value.
pIC50 listing for selected compounds.

Sample Smiles: CCN1c2ccc(OC)cc2N(C)C(=O)c2cccnc21
Lt Gt Eq: =
pIC50: 5.68

Sample Smiles: O=C1Nc2cccnc2N(C2CCC2)c2ncccc21
Lt Gt Eq: =
pIC50: 6.37

Sample Smiles: CCN1c2ncc(Cl)cc2C(=O)N(C)c2cccnc21
Lt Gt Eq: =
pIC50: 5.46

Sample Smiles: CCN1c2ccc([N+](=O)[O-])cc2N(C)C(=O)c2cccnc21
Lt Gt Eq: <
pIC50: 6.00

Sample Smiles: O=C1Nc2cccnc2Nc2ccccc21
Lt Gt Eq: <
pIC50: 6.00

Sample Smiles: CN(C)CCN1C(=O)c2cccnc2N(C2CC2)c2ncccc21
Lt Gt Eq: <
pIC50: 6.00

Sample Smiles: CN1C(=O)c2cccnc2N(CCO)c2ccccc21
Lt Gt Eq: <
pIC50: 6.00

Sample Smiles: N#Cc1ccnc2c1NC(=O)c1cccnc1N2C1CC1
Lt Gt Eq: =
pIC50: 5.90

Sample Smiles: CCN1c2ccc(CNC(=O)C(C)(C)C)cc2N(C)C(=O)c2cccnc21
Lt Gt Eq: <
pIC50: 6.00

Sample Smiles: Cc1cn([C@H]2C[C@H](N=[N+]=[N-])[C@@H](CO)O2)c(=O)[nH]c1=O
Lt Gt Eq: =
pIC50: 8.22

Sample Smiles: CCN1c2ncccc2C(=O)N(C)c2c(C)ccnc21
Lt Gt Eq: =
pIC50: 5.72

Sample Smiles: CCN1c2cccc(C)c2N(C)C(=O)c2cccnc21
Lt Gt Eq: =
pIC50: 6.62

Sample Smiles: CN1C(=O)c2cccnc2N(CCF)c2ncccc21
Lt Gt Eq: =
pIC50: 5.54

Sample Smiles: CSCN1c2ccccc2N(C)C(=O)c2cccnc21
Lt Gt Eq: =
pIC50: 5.18

Sample Smiles: CN(C)C(=O)CN1C(=O)c2cccnc2Nc2ccccc21
Lt Gt Eq: <
pIC50: 6.00

Sample Smiles: CCc1ccnc2c1NC(=O)c1cccnc1N2CC
Lt Gt Eq: =
pIC50: 6.96

Sample Smiles: CCN1c2cc(C(F)(F)F)cc(Cl)c2N(C)C(=O)c2cccnc21
Lt Gt Eq: =
pIC50: 6.54

Sample Smiles: COCCN1C(=O)c2cccnc2Nc2ccccc21
Lt Gt Eq: <
pIC50: 6.00

Sample Smiles: CCN1c2cc(C(=O)c3ccccc3)ccc2N(C)C(=O)c2cccnc21
Lt Gt Eq: <
pIC50: 6.00

Sample Smiles: Cc1cc2c(cc1C)N(CCN(C)C)c1ncccc1C(=O)N2C
Lt Gt Eq: <
pIC50: 6.00

Sample Smiles: C=CCN1C(=O)c2cccnc2N(C(C)=O)c2ccccc21
Lt Gt Eq: <
pIC50: 6.00

Sample Smiles: CCN1c2ncccc2C(=O)N(C)c2cccnc21
Lt Gt Eq: =
pIC50: 6.90

Sample Smiles: CN1C(=O)c2cccnc2N(S(C)(=O)=O)c2ncccc21
Lt Gt Eq: <
pIC50: 6.00

Sample Smiles: CCN1C(=O)c2cccnc2N(CC)c2cccc(C)c21
Lt Gt Eq: =
pIC50: 5.10

Sample Smiles: Cc1ccnc2c1NC(=O)c1c(O)ccnc1N2C1CC1
Lt Gt Eq: <
pIC50: 6.00

Sample Smiles: CC(C)(C)OC(=O)CN1C(=O)c2cccnc2Nc2ccccc21
Lt Gt Eq: <
pIC50: 6.00

Sample Smiles: CCN1c2ncccc2C(=O)Nc2c(C)ccnc21
Lt Gt Eq: =
pIC50: 7.46

Sample Smiles: CCN1c2ncccc2C(=O)N(C)c2cc(Cl)cnc21
Lt Gt Eq: <
pIC50: 6.00

Sample Smiles: CCOC(=O)CN1c2ccccc2N(C)C(=O)c2cccnc21
Lt Gt Eq: =
pIC50: 4.80

Sample Smiles: CCN1c2ncccc2C(=O)N(C)c2cc([N+](=O)[O-])cnc21
Lt Gt Eq: <
pIC50: 6.00

Sample Smiles: CN1c2ccccc2NC(=O)c2cccnc21
Lt Gt Eq: <
pIC50: 6.00

Sample Smiles: CCN1c2cccc(C)c2NC(=O)c2cccnc21
Lt Gt Eq: =
pIC50: 7.42

Sample Smiles: CN1C(=O)c2cccnc2N(C2CCCCC2)c2ncccc21
Lt Gt Eq: <
pIC50: 6.00

Sample Smiles: CCN1c2ncccc2NC(=O)c2cc(C)cnc21
Lt Gt Eq: <
pIC50: 6.00

Sample Smiles: CCN1c2ccc(O)cc2N(C)C(=O)c2cccnc21
Lt Gt Eq: <
pIC50: 6.00

Sample Smiles: CCN1c2ccccc2NC(=O)c2cccnc21
Lt Gt Eq: =
pIC50: 6.42

Sample Smiles: CC(C)N1c2ccccc2N(C)C(=O)c2cccnc21
Lt Gt Eq: =
pIC50: 6.70

Sample Smiles: Cc1ccnc2c1N(C)C(=O)c1cccnc1N2C1CC1
Lt Gt Eq: <
pIC50: 6.00

Sample Smiles: Cc1cccc2c1NC(=O)c1cccnc1N2
Lt Gt Eq: <
pIC50: 6.00

Sample Smiles: CCN1c2ccc(CN)cc2N(C)C(=O)c2cccnc21
Lt Gt Eq: <
pIC50: 6.00

Sample Smiles: CCN1c2ccc(C(N)=O)cc2N(C)C(=O)c2cccnc21
Lt Gt Eq: =
pIC50: 4.57

Sample Smiles: CN1C(=O)c2ccccc2N(C)c2ncccc21
Lt Gt Eq: <
pIC50: 6.00

Sample Smiles: Cc1ccc2c(c1)N(C)C(=O)c1c(C)cc(C)nc1N2C
Lt Gt Eq: <
pIC50: 6.00

Sample Smiles: CCN1C(=O)c2cccc(C)c2N(CC)c2ncccc21
Lt Gt Eq: =
pIC50: 6.19

Sample Smiles: CC(=O)N1c2cc(C)c(C)cc2N(C)C(=O)c2cccnc21
Lt Gt Eq: =
pIC50: 6.38

Sample Smiles: CCN1c2ncccc2C(=O)N(C(C)=O)c2cccnc21
Lt Gt Eq: =
pIC50: 6.44

Sample Smiles: CC[C@@H](C)N1c2ncccc2NC(=O)c2cccnc21
Lt Gt Eq: <
pIC50: 6.00

Sample Smiles: CCN1c2nc(C)ccc2C(=O)N(C)c2cccnc21
Lt Gt Eq: <
pIC50: 6.00

Sample Smiles: CN1C(=O)c2cccnc2N(CC(=O)O)c2ccccc21
Lt Gt Eq: <
pIC50: 6.00

Sample Smiles: O=C1c2cccnc2Nc2ccccc2N1CCO
Lt Gt Eq: <
pIC50: 6.00

Sample Smiles: CCN1c2ncccc2C(=O)N(C)c2cc(N)cnc21
Lt Gt Eq: <
pIC50: 6.00

From: ChEMBL document CHEMBL1125844
